Tested on: SF-295 CNS
Experiment: NCI tumour cell line growth inhibition, 48 h
So I've got a bunch of compounds here, and I need their TGI values.
Numbers only, in µM.

| compound | TGI / µM |
| --- | --- |
| O=C(N/C(=C\c1ccc(/C=C(\NC(=O)c2ccccc2)c2nc3ccccc3s2)cc1)c1nc2ccccc2s1)c1ccccc1 | 16.1 |

Give one value of TGI per listed compound.
1. CSc1ccc(SC2c3ccc(C)cc3Oc3nc(N)c(C#N)c(N)c32)cc1 (stereo unspecified)
2. O=S(=O)(NC1=NCCN1C(=S)SN1CCn2c1nsc2=S)c1ccccc1Cl
3. COc1cc(NC(=O)NCc2ccco2)ccc1-c1ccc(NC(=O)NCc2ccco2)cc1OC
4. COc1ccc(-c2ccc(-c3ccc(C(=N)N)cn3)o2)cc1Cl

# output
1. 2.97
2. 61
3. 14.4
4. 3.27

###

System: HS 578T breast
Test: NCI tumour cell line growth inhibition, 48 h
quantity.measured: TGI

Past entries and their recorded results:
| compound | tested.on | TGI |
| --- | --- | --- |
| Cc1ccc(S(=O)(=O)N/N=C2/CCC(C(C)(C)C)CC2Br)cc1 (stereo unspecified) | HS 578T breast | 47.1 µM |
| COc1ccc(CNc2nc3cc(C(F)(F)F)ccc3nc2-c2ccccc2)cc1OC | HS 578T breast | > 100 µM |
| OCC(CCc1c[nH]c2ccccc12)c1c[nH]c2ccccc12 (stereo unspecified) | HS 578T breast | 48.6 µM |
| Nc1nccc2c1ncn2C1OC(CO)C(O)C1O (stereo unspecified) | HS 578T breast | > 100 µM |
| COc1ccc(Cn2cc3c(c2-c2cc(OC)c(OC)c(OC)c2)CCc2cnoc2-3)cc1N | HS 578T breast | > 100 µM |

Batch of 6 compounds: report TGI for each.
1. COc1c(C)c(C/C=C(\C)CC/C=C(\C)CC/C=C(\C)CCC=C(C)C)c(OC)c2ccccc12
2. Nc1cc(S(N)(=O)=O)ccc1SSc1ccc(S(N)(=O)=O)cc1N
3. CC12ON(P(=O)(c3ccccc3)c3ccccc3)C(C)(c3ccccc31)c1ccccc12
4. COC([C@@H](OC(=O)c1ccccc1)[C@H](OC(=O)c1ccccc1)C(O)COC(=O)c1ccccc1)n1cc(C)c(=O)[nH]c1=O (stereo partly specified)
5. CCOC(=O)C(=O)CC(=O)C1=C(c2ccccc2OC)CC(c2cccs2)=CC1=O
6. CCOc1ccc(/C=C2\NC(=S)N(/C=C3\C(=O)Oc4ccccc4C3=O)C2=O)cc1

# output
1. > 100 µM
2. > 100 µM
3. > 100 µM
4. > 100 µM
5. > 100 µM
6. 96.2 µM

###

System: MDA-MB-231 breast
Experiment: NCI tumour cell line growth inhibition, 48 h; in the data active = GI50 below about 0.43 µM; inactive = the rest
I would appreciate it if you answered using one of these outcomes: True for active, False for inactive

Examples with answers:
| molecule | group.label |
| --- | --- |
| COc1cc(F)c(/C=C/c2cc(/C=C/c3cc(OC)c(OC)cc3F)n(-c3cc(F)cc(F)c3)n2)cc1OC | False |
| CNC1=C(C(=O)OC)SC(c2ccccc2)(c2ccccc2)SC1 | False |
| CCCCCCCCCCCCCCCCCCOc1ccccc1CC(=O)NCC[N+](C)(C)C | False |
| COc1cc2c3c(n(CCCBr)c(=O)c2cc1OC)-c1ccc(F)cc1C3=O | False |
| COc1ccc(Cn2cc3c(c2-c2cc(OC)c(OC)c(OC)c2)CCc2cnoc2-3)cc1N | True |
| CN(C)CCCCn1ccc2c1C(=O)c1c(c(O)c3ccccc3c1O)C2=O | False |
| COC(=O)[C@H](C)NC(=O)[C@@H](OC)[C@@H]1Cc2cc3cc(OC4CC(OC5CC(O)C(O)C(C)O5)C(O)C(C)O4)c(C)c(O)c3c(O)c2C(=O)[C@H]1OC1CC(OC2CC(OC3CC(C)(O)C(O)C(C)O3)C(O)C(C)O2)C(O)C(C)O1 (stereo partly drawn) | True |

Let us examine a further case.
# input Could you check what this test reported for CSc1ccc(SC2c3ccc(C)cc3Oc3nc(N)c(C#N)c(N)c32)cc1 (stereo not drawn) ?
# output False

###

Could you please report measured TGI for the items listed next?
Test system: M14 melanoma
Assay: NCI tumour cell line growth inhibition, 48 h

| compound | TGI |
| --- | --- |
| CC1(C)CC([P+](c2ccccc2)(c2ccccc2)c2ccccc2)=NN1 | > 100 µM |
| NCCCN1CCN(CCCNc2nc3ccccc3c3[nH]c4ccccc4c23)CC1 | 2.76 µM |
| CCCCCCCCCCCCCCCCCC(=O)Nc1ccn(C2CCC(COP(=O)(O)O)O2)c(=O)n1 (configuration not stated) | > 100 µM |
| CC(=O)OC(C)c1cc2c(s1)C(=O)c1c(C(C)OC(C)=O)csc1C2=O (configuration not stated) | 1.79 µM |
| O=c1cccccc1[O-].O=c1cccccc1[O-].O=c1cccccc1[O-].[Ce+3] | > 100 µM |
| CS(=O)(=O)N(CCC#N)c1ccc(C=O)cc1 | > 100 µM |

# input Check the records and state TGI for `N=c1oc2ccccc2cc1-c1nc2ccccc2c(=O)[nH]1`
# output > 100 µM

###

System: SF-268 CNS
Test: NCI tumour cell line growth inhibition, 48 h; in the data active = GI50 below about 0.43 µM; inactive = the rest
One label from this list, please: True = active, False = inactive

Worked set:
| compound | group.label |
| --- | --- |
| COc1ccc(-c2cc(-c3cccc(NS(C)(=O)=O)c3)nc(N)c2C#N)cc1 | True |
| Cc1ncc(C(=O)Nc2ccc(CN3CCN(C)CC3)c(C(F)(F)F)c2)cc1C#Cc1c(N)ncc2ccccc12 | False |
| C[C@@H](COCCC(=O)N1CCN(c2ncc(C(F)(F)F)cn2)CC1)Nc1cn[nH]c(=O)c1C(F)(F)F | False |
| Nc1nccc2c1ncn2C1OC(CO)C(O)C1O (stereo not given) | False |
| CSc1ccc(SC2c3ccc(C)cc3Oc3nc(N)c(C#N)c(N)c32)cc1 (stereo not given) | False |
| CCOc1nccc2c1nc(-c1nonc1N)n2CC | False |

# input Could you check what this test reported for `COc1ccc(-c2ccc(-c3ccc(C(=N)N)cn3)o2)cc1Cl` ?
# output False

# input Tell me the recorded outcome of this test for `COc1cc(F)c(/C=C/c2cc(/C=C/c3cc(OC)c(OC)cc3F)n(-c3cc(F)cc(F)c3)n2)cc1OC` .
# output False

# input Answer briefly: the call reported for `N#Cc1nc2c(S(=O)(=O)c3ccccc3)c(N)n(Cc3ccc(Cl)cc3)c2nc1C#N` in this assay.
# output False

# input Hi, sorry to bother you, what did the test record for `CC(=O)[O-].[Zn].c1ccc(/C(=N\Nc2ccccn2)c2ccccn2)cc1` ?
# output True

###

Tested on: CAKI-1 renal
Experiment: NCI tumour cell line growth inhibition, 48 h
quantity.measured: log10 of TGI (log10 of the value in µM)
Form field - Quantity: TGI; Unit: µM; Scale: log10

| compound | tested.on | log10 of TGI |
| --- | --- | --- |
| O=S(=O)(NC1=NCCN1C(=S)SN1CCn2c1nsc2=S)c1ccccc1Cl | CAKI-1 renal | 1.62 |

Below are 3 compounds. Give each one its log10 of TGI.
1. O=[N+]([O-])c1cccc(Cl)c1Oc1ccc(S(=O)(=O)/N=C(\NO)Nc2ccc(Cl)cc2)cc1
2. CCOc1ccc(/C=C2\NC(=S)N(/C=C3\C(=O)Oc4ccccc4C3=O)C2=O)cc1
3. O=C(CCSc1ccnc2c(C(F)(F)F)cccc12)N/N=C/c1cc(Cl)c(Cl)cc1Cl

# output
1: 1.41; 2: 1.73; 3: 1.64

Could you report log10 of TGI for every entry in the following list?
1. CC1=CCC[C@H]2[C@](C)(CC3=CC(=O)C(Sc4ccccc4)=CC3=O)[C@@H](C)CC[C@]12C
2. C=C1C(=O)OC2/C=C(\CO)CC/C=C(\CO)CC(OC(=O)C(C)C)C12 (stereo not given)

# output
1.56
0.52

###

System: SW-620 colon
Test: NCI tumour cell line growth inhibition, 48 h; in the data active = GI50 below about 0.43 µM; inactive = the rest
// classify into 1 = active, 0 = inactive

| sample.smiles | tested.on | group.label |
| --- | --- | --- |
| COc1ccc2c(c1)c(-c1ccc(-c3cn(C)c4ccc(OC)cc34)[nH]1)cn2C | SW-620 colon | 0 |
| Cc1ccc(Nc2cc(C)nc(NCCCNc3ccnc4cc(Cl)ccc34)n2)cc1 | SW-620 colon | 0 |
| COc1cccc(CCC(=O)c2cc3c(N)c(C(=O)Nc4cccc(Cl)c4C)sc3nc2C)c1 | SW-620 colon | 0 |
| N#Cc1nc2c(S(=O)(=O)c3ccccc3)c(N)n(Cc3ccc(Cl)cc3)c2nc1C#N | SW-620 colon | 0 |
| COc1cc(NC(=O)NCc2ccco2)ccc1-c1ccc(NC(=O)NCc2ccco2)cc1OC | SW-620 colon | 0 |
| COc1ccc(-c2cc(-c3cccc(NS(C)(=O)=O)c3)nc(N)c2C#N)cc1 | SW-620 colon | 1 |
| COc1c(Cl)ccc2c(-c3nc4cc(Cl)c(F)cc4s3)cc(=O)oc12 | SW-620 colon | 0 |
| O=C(N/N=C/c1ccc(Cl)cc1Cl)c1ccc2nc(-c3ccc(Cl)cc3)[nH]c2c1 | SW-620 colon | 0 |

# input Per the records of this test, what outcome belongs to `COc1ccc(Cn2cc3c(c2-c2cc(OC)c(OC)c(OC)c2)CCc2cnoc2-3)cc1N` ?
# output 1

# input Test call for this molecule, please: `CCOc1nccc2c1nc(-c1nonc1N)n2CC`
# output 0
